- TARGET OF ASSAY: GmRLK8-1 LRR domain (from the RLK protein at Rhg4) (Glycine max)
- TEST SUMMARY: fluorescence (luminescence spectrometry) titration of peptide with purified LRR domain, in vitro
QUANTITY: pKd
Remember, pKd is on a log scale: it is -log10 of the molar concentration.

BINDER	NUMERIC VALUE
RLAPEGPDPHHN (modifications not checked) [peptide 30 (GmCLE30, GmRIC1)]	7.08
RAELDFNYMSKRRVPNGPDPIHNRRAGNSGR (modifications not checked) [peptide 36L (GmCLE34, AtCLE36, MtCLE36)]	7.29

Input line: Query (binder): RLAPGGPDPQHN (modifications not checked) [peptide 2 (GmNIC1, LjCLE-R2 and LjCLE-R1)] ; field requested: pKd
Output line: 7.02

From: patent US20120192315A1
